target: Human D1 Receptor (Homo sapiens (Human)); assay: Human D1 Receptor Binding Assay ([3H]-SCH23390 competition); details: competition with 0.5 nM [3H]-SCH23390, over-expressing LTK human cell lines, 30 min at 37° C.; values marked ^a are from a single determination; read-out: Human D1 Receptor Binding, Ki (nM); Geometric mean of 2-4 determinations (unless otherwise indicated)
quantity_measured: Ki (nM)
Please give a number only; it is taken to be in nM.

Some solved entries appear below for comparison.
compound: CCc1c(-c2ccc(Oc3ncnc4occc34)cc2)n(CC)c(=O)[nH]c1=O
subject_of_test: Human D1 Receptor (Homo sapiens (Human))
unit: nM
Ki: 309

compound: Cc1cc(Oc2ncnc3occc23)ccc1-c1c(C)n[nH]c(=O)c1C (single isomer, unassigned) [Example 8]
subject_of_test: Human D1 Receptor (Homo sapiens (Human))
unit: nM
Ki: 40.2

Consider the record given below.
INPUT: For the record Cc1cc(Oc2ncnc3occc23)ccc1-c1cn[nH]c(=O)c1C , what value of Ki is listed for Human D1 Receptor (Homo sapiens (Human))?
OUTPUT: 372

====

target: Human D1 Receptor (Homo sapiens (Human), UniProt P21728); experiment: Human D1 Receptor Binding Assay ([3H]-SCH23390 competition); conditions: competition with 0.5 nM [3H]-SCH23390, over-expressing LTK human cell lines, 30 min at 37° C.; values marked ^a are from a single determination; read-out: Human D1 Receptor Binding, Ki (nM); Geometric mean of 2-4 determinations (unless otherwise indicated)
Sequence (P21728 whole entry): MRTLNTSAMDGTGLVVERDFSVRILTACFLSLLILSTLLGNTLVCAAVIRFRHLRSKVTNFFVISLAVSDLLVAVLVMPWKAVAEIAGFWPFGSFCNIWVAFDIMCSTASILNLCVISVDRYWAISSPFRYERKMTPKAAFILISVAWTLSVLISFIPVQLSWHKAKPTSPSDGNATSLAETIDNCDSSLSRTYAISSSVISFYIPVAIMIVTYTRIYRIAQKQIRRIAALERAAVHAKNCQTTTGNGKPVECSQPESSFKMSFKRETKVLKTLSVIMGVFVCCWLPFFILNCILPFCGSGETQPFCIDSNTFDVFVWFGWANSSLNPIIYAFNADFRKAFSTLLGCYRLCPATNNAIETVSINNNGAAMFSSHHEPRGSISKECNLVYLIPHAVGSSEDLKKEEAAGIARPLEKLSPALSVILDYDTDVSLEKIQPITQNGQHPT
quantity_measured: Ki (nM)
Please give a number only; it is taken to be in nM.

compound: Cc1cc(Oc2ncnc3occc23)ccc1-c1c(C)ncc(=O)n1C (single isomer, unassigned) [Example 4]
quantity_measured: Ki
experimental_result: 127
--
compound: Cc1cc(Oc2ncnc3occc23)ccc1-c1c(C)ncc(=O)n1C [Example 3]
quantity_measured: Ki
experimental_result: 196

INPUT: Item CCc1c(-c2ccc(Oc3ncnc4occc34)cc2)n(C)c(=O)[nH]c1=O has what recorded Ki?
OUTPUT: 274

INPUT: Item Cc1c(-c2ccc(Oc3nccc4onc(C)c34)cc2)n(C)c(=O)[nH]c1=O has what recorded Ki?
OUTPUT: 280

INPUT: Item Cc1n[nH]c(=O)c(C)c1-c1ccc(Oc2ncnc3occc23)cc1 has what recorded Ki?
OUTPUT: 70.3

INPUT: Item Cc1c(-c2ccc(Oc3ncnc4occc34)cc2)n(C)c(=O)[nH]c1=O has what recorded Ki?
OUTPUT: 142

INPUT: Item Cc1cc(Oc2ncnc3occc23)ccc1-c1c(C)n[nH]c(=O)c1C (single isomer, unassigned) [Example 7] has what recorded Ki?
OUTPUT: 30.7

INPUT: Item CCc1c(-c2ccc(Oc3ncnc4occc34)cc2)n(C2CC2)c(=O)[nH]c1=O has what recorded Ki?
OUTPUT: 142

====

target: Human D1 Receptor (Homo sapiens (Human)); assay: Human D1 Receptor Binding Assay ([3H]-SCH23390 competition); settings: competition with 0.5 nM [3H]-SCH23390, over-expressing LTK human cell lines, 30 min at 37° C.; values marked ^a are from a single determination; read-out: Human D1 Receptor Binding, Ki (nM); Geometric mean of 2-4 determinations (unless otherwise indicated)
Counter-ions that a name gives are not always drawn.
Binary call on Ki with cut-off 300 nM: strictly below means True, and equality or higher means False.

INPUT: # strict comparison: is reported Ki < 300 nM? input = Cc1cc(Oc2ncnc3occc23)ccc1-c1c(C)n[nH]c(=O)c1C [Example 6]
OUTPUT: True

INPUT: # strict comparison: is reported Ki < 300 nM? input = COCCn1c(-c2ccc(Oc3ncnc4occc34)cc2)c(C)c(=O)[nH]c1=O
OUTPUT: False

INPUT: # strict comparison: is reported Ki < 300 nM? input = Cc1cc(Oc2nccc3onc(C)c23)ccc1-c1c(C)ncc(=O)n1C [Example 17, trifluoroacetic acid salt]
OUTPUT: False

INPUT: # strict comparison: is reported Ki < 300 nM? input = Cc1cc(Oc2ncnc3occc23)ccc1-c1c(C)ncc(=O)n1C (single isomer, unassigned) [Example 5]
OUTPUT: False

INPUT: # strict comparison: is reported Ki < 300 nM? input = Cc1c(-c2ccc(Oc3ncnc4occc34)cc2)n(C2CC2)c(=O)[nH]c1=O
OUTPUT: True

INPUT: # strict comparison: is reported Ki < 300 nM? input = CCn1c(-c2ccc(Oc3ncnc4occc34)cc2)c(C)c(=O)[nH]c1=O
OUTPUT: True

INPUT: # strict comparison: is reported Ki < 300 nM? input = Cc1cc(Oc2nccc3onc(C)c23)ccc1-c1c(C)n[nH]c(=O)c1C [Example 16, trifluoroacetic acid salt]
OUTPUT: False

INPUT: # strict comparison: is reported Ki < 300 nM? input = Cc1cc(Oc2nccc3[nH]cnc23)ccc1-c1c(C)ncnc1C#N
OUTPUT: False
